The reported numbers originate from the antibiotic and cytotoxicity screens of Wong et al. (2023).

test system: S. aureus RN4220; assay: growth inhibition call (relative growth <= 0.2); conditions: 50 µM
Screen size: about 39,000 compounds; about 500 (1.3%) were called active. The full list was thinned out, with actives kept by preference.
Write down the outcome that applies. Available outcomes: class 1 = active, class 0 = inactive

As a guide, the following entries are already answered.
> print(dat)
                                test.smiles    label
1  CN(C)c1cc(NC(=O)CNC(C)(C)C)c(O)c2c1C[C@H]1C[C@H]3[C@H](N(C)C)C(=O)[C@@H](C(N)=O)C(=O)[C@@]3(O)C(=O)[C@H]1C2=O  class 0
2  C=c1ccc(S(=O)(=O)NC[C@@H](C)O)cc1=C1NN=C2c3ccccc3C(C)=NN21  class 0
3  CN(C)c1ccc(O)c2c1C[C@@H]1C[C@@H]3[C@@H](N(C)C)C(=O)C(C(N)=O)=C(O)[C@]3(O)C(=O)[C@H]1C2=O  class 0
4  C[C@@H]1CN([C@H](C)CO)C(=O)Cc2cc(NC(=O)Nc3ccc4c(c3)OCO4)ccc2O[C@H]1CN(C)C(=O)Nc1ccc(C(F)(F)F)cc1  class 0
5  CN(C)c1cc(NC(=O)CNC(C)(C)C)c(O)c2c1C[C@H]1C[C@H]3[C@H](N(C)C)C(=O)C(C(N)=O)=C(O)[C@@]3(O)C(=O)[C@H]1C2=O  class 0

query: Please state the recorded outcome for this compound: Cc1ccc(S(=O)(=O)Nc2ccc3c(c2)C(=O)N([C@H](C)CO)C[C@H](C)[C@H](CN(C)S(=O)(=O)c2ccc(F)cc2)OCCCC[C@@H](C)O3)cc1
result: class 0

query: Lab log entry: CN(C)c1cc(CNCC(C)(C)C)c(O)c2c1C[C@H]1C[C@H]3[C@H](N(C)C)C(=O)[C@H](C(N)=O)C(=O)[C@@]3(O)C(=O)[C@@H]1C2=O — outcome as called in the assay?
result: class 1

query: Recorded test outcome, item CC(C)C1=CC2=CC[C@H]3[C@](C)(CO)CCC[C@]3(C)[C@@H]2CC1
result: class 0

query: Per the records of this test, what outcome belongs to Nc1nnc(-c2ccc([N+](=O)[O-])o2)o1 ?
result: class 1

query: Returns: the outcome recorded for C[C@@H]1CN([C@H](C)CO)C(=O)c2cc(NC(=O)C3CC3)ccc2O[C@@H]1CN(C)Cc1ccc(-c2ccccc2)cc1 in this assay.
result: class 0

query: // outcome(item) with item = CO[C@@H]1CC[C@@H]2[C@H]1OCCN2C(=O)N(C)C
result: class 0

query: For this compound, state the assay outcome: Cc1cc(=O)[n+]2cccc(O)c2[nH]1
result: class 1

query: Tell me the assay call for C[C@H]1CN([C@@H](C)CO)C(=O)Cc2cc(NS(C)(=O)=O)ccc2O[C@H]1CN(C)S(=O)(=O)c1ccccc1 please.
result: class 0

query: Recorded test outcome, item CC(C)NC(=O)Nc1cccc2c1O[C@H](CN(C)S(=O)(=O)c1ccc(F)cc1)[C@H](C)CN([C@H](C)CO)C2=O
result: class 0

query: // param item: O=C1OCCN/C1=C/C(=O)c1ccccc1 ; yields the recorded call
result: class 0

query: # lookup: test call for CN(C)[C@@H]1C(=O)[C@@H](C(N)=O)C(=O)[C@@]2(O)C(=O)[C@H]3C(=O)c4c(O)cccc4C[C@H]3C[C@@H]12
result: class 0

query: How was Cc1cc(C(=O)O)n[nH]1 classified in this test?
result: class 0

query: Which outcome was entered for the compound COc1ccc(NC(=O)N(C)C[C@H]2OCCCC[C@H](C)Oc3ccc(NS(=O)(=O)c4ccc(C)cc4)cc3C(=O)N([C@@H](C)CO)C[C@@H]2C)cc1 in this test?
result: class 0
